# Type: in vivo, CD-1 mice
# Measurement context: female, CD-1, mouse, maternal serum, ip, 0.6 mg
Property measured: half-life
Answer format: number, then unit.

Need half-life of CN(C)CCCC1(c2ccc(F)cc2)OCc2cc(C#N)ccc21 (racemic) [CIT, (±)-citalopram] , thanks.
55.8 min

====

# Assay type: in vivo, CD-1 mice
# Measurement context: female, CD-1, mouse, maternal serum, ip, 20 mg/kg
Property measured: half-life (h)
Number in h, nothing else.

Need half-life of CN(C)CCCC1(c2ccc(F)cc2)OCc2cc(C#N)ccc21 (racemic) [CIT, (±)-citalopram] , thanks.
1.08

====

# Format: in vivo, CD-1 mice
# Measurement context: female, CD-1, mouse, maternal serum, ip, 0.6 mg, AUC, area under the concentration-time curve, pregnant mice GD18FD, fixed dose 0.6 mg CIT ip
Property measured: AUC (ng·h/mL)
Number in ng·h/mL, nothing else.

Need AUC of CN(C)CCCC1(c2ccc(F)cc2)OCc2cc(C#N)ccc21 (racemic) [CIT, (±)-citalopram] , thanks.
927

====

# Assay type: in vivo, CD-1 mice
# Measurement context: female, CD-1, mouse, serum, ip, 0.6 mg
Property measured: half-life (h)
Number in h, nothing else.

Need half-life of CN(C)CCCC1(c2ccc(F)cc2)OCc2cc(C#N)ccc21 (racemic) [CIT, (±)-citalopram] , thanks.
1.06
